- Tested on: human breast cancer cell lines (DT22, MCF7, T47D, BT474, MDA-MB-453, MDA-MB-468, MDA-MB-231)
- test_summary: Cell proliferation (WST-1) in panel of breast cancer cell lines
- Format: cell-based
- reported_conditions: Homo sapiens; breast cancer cell lines; read-out: IC50 for inhibition of proliferation
- Protocol: WST-1 assay (Roche, Basel, Switzerland) was used to quantify cell viability as described.[38] Absorbance was measured at 450 nm using a VICTOR X5 PerkinElmer 2030 Multilabel Plate Reader. All assays were performed in triplicate and analyzed using Graph Pad Prism 8.0.

| compound | IC50 |
| --- | --- |
| Clc1ccc(C(=C2C3CC4CC(C3)CC2C4)c2ccc(OCCCCCCN3CCCC3)cc2)cc1 [NB-55] | 2 to 10 µM |

* * *

- test_summary: Pharmacokinetics in mice after single s.c. or oral dose
- Format: in vivo, female CD1 mice
- reported_conditions: female, CD1, mouse, sc, 60 mg/kg, single dose, plasma
# half-life values compiled below

| compound | half-life [h] |
| --- | --- |
| c1cc(C(c2ccc(OCCCCCCN3CCCCC3)cc2)=C2[C@H]3C[C@@H]4C[C@@H](C[C@H]2C4)C3)ccc1OCCCCCCN1CCCCC1 [NB-70] | 222 |
| c1cc(C(=C2C3CC4CC(C3)CC2C4)c2ccc(OCCCCCCN3CCCCCC3)cc2)ccc1OCCCCCCN1CCCCCC1 [NB-72] | 302 |
| C[N+]1(CCCCCCOc2ccc(C(=C3C4CC5CC(C4)CC3C5)c3ccc(OCCCCCC[N+]4(C)CCCC4)cc3)cc2)CCCC1 [NB-68] | 23.7 |
| C[N+]1(CCCCCCOc2ccc(C(=C3C4CC5CC(C4)CC3C5)c3ccc(OCCCCCC[N+]4(C)CCCCC4)cc3)cc2)CCCCC1 [NB-71] | 33.2 |
| C[N+]1(CCCCCCOc2ccc(C(=C3C4CC5CC(C4)CC3C5)c3ccc(OCCCCCC[N+]4(C)CCCCCC4)cc3)cc2)CCCCCC1 [NB-73] | 31.4 |

* * *

- test_summary: Pharmacokinetics in mice after single s.c. or oral dose
- Type: in vivo, female CD1 mice
- reported_conditions: female, CD1, mouse, sc, 40 mg/kg, single dose, plasma
quantity: Cmax (µM)

| compound | quantity | unit_symbol | result_number |
| --- | --- | --- | --- |
| C[N+]1(CCCCCCOc2ccc(C(c3ccc(Cl)cc3)=C3C4C[C@H]5C[C@@H](C4)C[C@H]3C5)cc2)CCCC1 [NB-63] | Cmax | µM | 5.01 |
| Clc1ccc(C(=C2C3CC4CC(C3)CC2C4)c2ccc(OCCCCCCN3CCCC3)cc2)cc1 [NB-55] | Cmax | µM | 1.2 |
| CC[N+](C)(CC)CCCCCCOc1ccc(C(=C2C3CC4CC(C3)CC2C4)c2ccc(OCCCCCC[N+](C)(CC)CC)cc2)cc1 [NB-115] | Cmax | µM | 34.7 |

* * *

- test_summary: Pharmacokinetics in mice after single s.c. or oral dose
- Assay type: in vivo, female CD1 mice
- reported_conditions: female, CD1, mouse, oral, 60 mg/kg, single dose, plasma
Note to self: values exactly at 30 nM are rule met. So Cmax at or above 30 nM is rule met, below is rule not met.

| compound_structure_string | label_class |
| --- | --- |
| c1cc(C(=C2C3CC4CC(C3)CC2C4)c2ccc(OCCCCCCN3CCCCCC3)cc2)ccc1OCCCCCCN1CCCCCC1 | rule met |
| c1cc(C(=C2C3CC4CC(C3)CC2C4)c2ccc(OCCCCCCN3CCCC3)cc2)ccc1OCCCCCCN1CCCC1 | rule met |
| c1cc(C(c2ccc(OCCCCCCN3CCCCC3)cc2)=C2[C@H]3C[C@@H]4C[C@@H](C[C@H]2C4)C3)ccc1OCCCCCCN1CCCCC1 | rule met |
| C[N+]1(CCCCCCOc2ccc(C(=C3C4CC5CC(C4)CC3C5)c3ccc(OCCCCCC[N+]4(C)CCCC4)cc3)cc2)CCCC1 | rule met |
| C[N+]1(CCCCCCOc2ccc(C(=C3C4CC5CC(C4)CC3C5)c3ccc(OCCCCCC[N+]4(C)CCCCCC4)cc3)cc2)CCCCCC1 | rule not met |
